Molecular target: Prothrombin (Homo sapiens, UniProt P00734)
pKi: −log10 of the molar value.
measurementType: pKi

N=C(N)c1ccc2nc(-c3cc(Cl)cc(-c4cccc(N)c4)c3O)[nH]c2c1; 8.38

====

Target: Prothrombin (Homo sapiens)
Assay: Binding affinity for Coagulation factor II relative to compound 1
Selectivity listing for selected compounds.
measurementType: Selectivity

N=C(N)c1ccc2[nH]c(-c3cc(CCC(=O)O)cc(-c4cccc([N+](=O)[O-])c4)c3O)cc2c1; 59
N=C(N)c1ccc2[nH]c(-c3cc(CC(=O)O)cc(-c4cccc(Cl)c4)c3O)cc2c1; 112
N=C(N)c1ccc2[nH]c(-c3cc(CC(=O)O)cc(-c4cccc([N+](=O)[O-])c4)c3O)cc2c1; 960
